Kindly state IC50 for each of the entries shown.
- tested-on: Bovine serum albumin (Bos taurus)
- Sequence (P02769 25-607): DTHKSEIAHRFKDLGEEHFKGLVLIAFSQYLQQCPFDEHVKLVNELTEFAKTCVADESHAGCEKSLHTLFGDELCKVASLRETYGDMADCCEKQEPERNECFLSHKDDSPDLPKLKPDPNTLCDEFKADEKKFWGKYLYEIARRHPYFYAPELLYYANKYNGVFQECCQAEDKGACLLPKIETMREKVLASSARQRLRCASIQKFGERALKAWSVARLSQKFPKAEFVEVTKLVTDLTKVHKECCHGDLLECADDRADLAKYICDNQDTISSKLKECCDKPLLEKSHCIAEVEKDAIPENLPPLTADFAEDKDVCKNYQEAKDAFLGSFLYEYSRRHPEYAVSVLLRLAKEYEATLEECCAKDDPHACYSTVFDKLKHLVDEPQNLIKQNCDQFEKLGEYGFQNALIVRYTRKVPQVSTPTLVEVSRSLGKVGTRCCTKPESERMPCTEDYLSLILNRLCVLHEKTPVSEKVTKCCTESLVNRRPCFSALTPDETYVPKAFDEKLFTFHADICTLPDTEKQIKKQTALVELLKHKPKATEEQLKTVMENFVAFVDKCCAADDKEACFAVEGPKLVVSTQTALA
- assay-text: biochemical
Give just the numeric value; µM need not be written.

Note IC50 for the molecule shown: O=C(O)c1cc([N+](=O)[O-])cc2c1NCCCC2
71

Note IC50 for the molecule shown: O=C(O)c1cc(Br)cc2c1NCCCC2
132

Data credit: patent US5242912A
